Give measured exon inclusion enrichment index for each item. Keep answers brief.
B1: mRNA-splicing (parent)
chain: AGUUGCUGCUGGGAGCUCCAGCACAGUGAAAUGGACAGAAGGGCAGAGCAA

variants of: B1; test: exon inclusion enrichment index; higher = more inclusion; WT1 exon 5 minigene, HEK293
Give the value as a plain number.

Entry AGUUGAAGAAGGGAGCUCCAGCACAGUGAAAUGAUCAGAAGGGCAGAGCAA : reported exon inclusion enrichment index = ?
0.216

Now try AGUUUCUUUUGGGAGCUCCAGCACAGUAAAAUGGACAGAAGGGCAGAGCAA .
0.0119

Now this one: AGUUGCUGCUGGGAGCUCCAGCACAGUUAAAUGGACAGAAGGGCAGAGCAA
0.0227

What about this variant? AGUUGCUGCUGUUAGCUCCAGCACAGUGAAAUGGACAGAAGGGCAGAGCAA
0.199

Also need AGUUUCUUUUGGGAGCUCCAGCACAGUGAAAGUGACAGAAGGGCAGAGCAA , thanks.
0.0291

Follow-up item: AGUUAGGGAUGGGAAAUCCAGCACAGUGAAAUGGACAGAAGGGCAGAGCAA
0.000736

And then AGUUCUUCUCGGGAGCUCCAGCACAGUGAAAUGGACAGAAGGGCACUGCAA , what is it?
1.64

Try this variant too: AGUUGAAGAAGGGAGCUCCAGCACAGUGAAAUGGACAGCGGGGCAGAGCAA
0.849

Quick one: AGUUGAAGAAGGGAGCUCCAGCACAGUGAAAUGGACAGCUGGGCAGAGCAA
0.533

Now the variant AGUUCUUCUCGGGAGCCCCAGCACAGUGAAAUGGACAGAAGGGCAGAGCAA
1.43

Likewise for AGUUCUUCUCGGGCACUCCAGCACAGUGAAAUGGACAGAAGGGCAGAGCAA ?
0.459

Try AGUUAGGGAUGGGAGCUCCAGCACAGUUUAAUGGACAGAAGGGCAGAGCAA next.
0.000755

Another variant to check: AGUUAUAUAUGGGAGCUCCAGCACAGUGAAAUGGACAGAAGGGGGGAGCAA
0.0089

Try the variant AGUUGACGACGGGAGCUCCAGCACAGCAAAAUGGACAGAAGGGCAGAGCAA
3.15

Try AGUUAUAUAUGGGAGCUCCAGCACAGUGAAUCGGACAGAAGGGCAGAGCAA next.
0.168

Next up: AGUUGCUGCUGGGAGCUCCAGCACAGUGUCAUGGACAGAAGGGCAGAGCAA
0.119

Another: AGUUUCUUUUGGGCACUCCAGCACAGUGAAAUGGACAGAAGGGCAGAGCAA
0.0209

Then what about the variant AGUUCUUCUCGGGAGCUCCAGCCAAGUGAAAUGGACAGAAGGGCAGAGCAA ?
2.31

Check AGUUGACGACGGGAGUCCCAGCACAGUGAAAUGGACAGAAGGGCAGAGCAA too.
2.51

What about this variant? AGUUCUUCUCGGGAGCUCCAGCACAGUGAAAUGGACAUUAGGGCAGAGCAA
0.0819

What would you report for AGUUCGCGCCGGGAGCUCCAGCACAGUGAAAUGGACAGAAGGGCAGCCCAA ?
2.99

And AGUUAGGGAUGGGAGCUCCAGCACAGUGAAAUGGAGGGAAGGGCAGAGCAA ?
0.00376
